Each entry below carries its recorded melting point.
measured-parameter: melting point

> print(dat)
                                    compound  measured.parameter       reported
 1       C1=C(c2nc3ccccc3o2)CCN(Cc2ccccc2)C1       melting point  129 to 130 °C
 2  CCOC(=O)N(O)Cc1cccc(Nc2ccccc2C(=O)OC)c1C       melting point  101 to 103 °C
 3  Cc1cc(-c2ccc(Cl)cc2)cn2cc(C(=O)NC(Cc3ccc(OCc4ccccc4)cc3)C(=O)O)nc12 (configuration not stated)       melting point  249 to 250 °C
 4  NC(=O)c1cccc2c1CC(NCCCc1c[nH]c3ccc(F)cc13)CO2 (configuration not stated)       melting point  153 to 155 °C
 5  O=C1NC(=O)C(Cc2ccc(OCc3nc4ncccc4[nH]3)cc2)S1 (configuration not stated)       melting point  247 to 248 °C
 6  O=C(Nc1nnn[nH]1)c1cc2c(cc1[N+](=O)[O-])OCO2       melting point         279 °C
 7   Cc1cc(C)cc(CNc2c(NC(C)(C)C)c(=O)c2=O)c1       melting point  246 to 248 °C
 8                 COc1ccc2[nH]c(=O)[nH]c2c1       melting point  249 to 251 °C
 9      O=C(c1ccc([N+](=O)[O-])cc1)N1CCSC1=S       melting point  166 to 167 °C
10  COc1ccc(-c2nc(Sc3ccc(Cl)cc3)n(C3CCCCO3)c2-c2ccc(OC)cc2)cc1 (configuration not stated)       melting point  202 to 204 °C
11  O=c1[nH]c2ccccc2n1CCCCCCN1CCN(C(c2ccccc2)c2ccccc2)CC1       melting point         190 °C
12  NC(c1ccccc1)C12CC(CN1Cc1ccccc1)C2 (configuration not stated)       melting point  63.5 to 64 °C
13  N#Cc1ccc(N2C(=O)N(CC#CCO)C(CF)(CF)C2=O)cc1C(F)(F)F       melting point  131 to 132 °C
14                  CCCCCCCN(CCO)c1cccc(O)c1       melting point    45 to 47 °C
15             CCN(CC)C(=O)C(Cl)=C(Cl)C(=O)O       melting point  154 to 155 °C
16  CS(=O)(=O)Nc1cccc(Nc2nc(OC3CCOC3)c3nc[nH]c3n2)c1 (configuration not stated)       melting point  255 to 257 °C
17  Cc1ccc(-c2cc(-c3ccccc3)c(-c3ccccc3)s2)cc1       melting point  110 to 112 °C

* * *

melting point values, listed per item
measured-parameter: melting point

> print(dat)
                                    compound  measured.parameter       reported
 1  CSc1ccc(-n2c(-c3ccc(F)cc3)nc(SC)c(C#N)c2=O)cc1       melting point  204 to 207 °C
 2  O=C(O)c1cc(=O)c2ccc(COc3ccc(OCc4ccc5ccccc5n4)cc3)cc2o1       melting point  216 to 219 °C
 3  CC1(c2ccc(-c3ccccc3)cc2)CC(=O)NN1 (stereo not given)       melting point  191 to 192 °C
 4  COC1=C(OC)C(=O)C(c2cc(C(C)(C)C)c(O)c(C(C)(C)C)c2)=C(C)C1=O       melting point  147 to 148 °C
 5  N#Cc1cccc(C2=Nc3ccc(-c4cccc(F)c4F)cc3NC(=O)C2)c1       melting point         240 °C
 6  COC(=O)c1ccc2c(c1)CN(S(=O)(=O)c1ccc(C)cc1)C2       melting point  164 to 166 °C
 7  O=C(NCCCCCCCNC(=O)c1ccc(Oc2ccccc2)cc1)c1ccc(Oc2ccccc2)cc1       melting point  164 to 165 °C
 8  O=[N+]([O-])c1ccc(Cl)cc1NC12CC3CC(CC(C3)C1)C2       melting point         146 °C
 9  c1ccc(-n2c(-c3ccc(-c4ccc(-c5nc6c7ccccc7c7ccccc7c6n5-c5ccccc5)cc4)cc3)nc3c4ccccc4c4ccccc4c32)cc1       melting point         402 °C
10  O=C(OCc1ccccc1)N1C[C@@H]2CN(c3ccc(N4C[C@H](CO)OC4=O)cc3)C[C@@H]2C1       melting point  163 to 164 °C
11   Cc1ccc(-c2ncn3c2CN(N(C)C)c2ccccc2-3)cc1       melting point  204 to 205 °C
12  CC(C)(C)c1csc(-c2cc3cc(CSc4ccccc4C(=O)O)ccc3o2)n1       melting point  205 to 207 °C
13  CC(=O)Oc1c(C)cc(N(C)C(=O)OC(C)(C)C)c(C)c1C       melting point  103 to 104 °C
14  Cc1ccc2c(c1)Cc1c(C(=O)C(C#N)C(=O)Nc3ccccc3)nn(-c3ccccc3)c1-2 (stereo not given)       melting point  249 to 251 °C
15                 O=C(O)Cc1cc(Cl)cc(Cl)c1Cl       melting point  125 to 133 °C

* * *

measured-parameter: melting point

> print(dat)
                                   compound       reported
1  O=C(NCc1ccc2ccn(C3CCN(CCc4ccc(F)cc4)CC3)c2c1)C(F)F    79 to 80 °C
2  COc1ccc(S(=O)(=O)C(Cc2ccccc2)C(=O)NO)cc1 (stereo unspecified)         180 °C
3     O=C1N(Cc2ccccc2)OCCN1c1ccc(Cl)c(Cl)c1          76 °C
4   COc1ccc(/C=C/c2ccncc2)cc1OCCCCCc1ccccc1   98 to 100 °C
5  Oc1ccc(C=C2c3cc(O)c(O)cc3-c3ccc(O)c(O)c32)cc1  228 to 230 °C
6                         CCc1nc(N)nc(O)c1I  199 to 200 °C

* * *

Entries annotated with measured melting point
measured-parameter: melting point

> print(dat)
                                   compound  measured.parameter       reported
1      COc1ccc(C=O)cc1OCc1nc(-c2ccccc2)oc1C       melting point  121 to 122 °C
2  N#CC1=Cc2ccccc2C(N2CCN(N=Cc3ccccn3)CC2)c2ccccc21 (configuration not stated)       melting point  182 to 184 °C
3  Nc1nc(O)c2cc(CN(CCF)c3ccc(C(=O)N[C@@H](CCC(=O)O)C(=O)O)cc3)ccc2n1       melting point       > 350 °C
4  O=C(O)CCCc1cc2nc(C(F)(F)F)ccc2n1S(=O)(=O)c1ccccc1       melting point         168 °C
5          CCc1c(C(=O)O)ccc(OCc2ccccc2)c1Cl       melting point  208 to 210 °C
6  CC(C)OC(=O)c1cc(-n2c(=O)c3c(n(C)c2=O)CCCC3)c(F)cc1Cl       melting point  113 to 115 °C
7  CC(C)C(O)(C=Cc1ccc([N+](=O)[O-])cc1)CC(=O)OCc1ccccc1 (racemic)       melting point    64 to 65 °C

* * *

melting point values, listed per item
measured-parameter: melting point

> print(dat)
                                    molecule       reported
 1  CC(C)n1c(=O)c2c(-c3cc(C4CC4)on3)ncn2c2ccccc21  247 to 249 °C
 2           COc1ccc(CC(=O)NCCc2ccccc2)cc1OC  123 to 124 °C
 3   CCOC(=O)C(=CNc1sc(I)cc1C(=O)OC)C(=O)OCC  163 to 164 °C
 4                O=C/C=C/c1csc(Nc2ccccc2)n1  142 to 143 °C
 5  COc1ccc(CNc2nnc(Cl)c3cc(Cl)c(Cl)cc23)cc1Cl  208 to 209 °C
 6  CC(=O)COc1c(-c2ccccc2)c(=O)[nH]c2cc(Cl)ccc12  185 to 186 °C
 7            CCOCc1c(C)nc2c3cccc(Cl)c3ccn12    94 to 96 °C
 8  O=[N+]([O-])c1c(NCCC23CCCN2CCC3)cnc2ccccc12  106 to 108 °C
 9  CCOC(=O)C1=C(C)Nc2ccnc(OC(C)C)c2C1c1ccc(C(F)(F)F)cc1 (stereo not drawn)  117 to 120 °C
10  CCCN1CCC(O)(c2cccc(F)c2F)C1 (single isomer, unassigned; (-))    95 to 98 °C
11               COc1cc2nc(Cl)n3cnnc3c2cc1OC  269 to 271 °C
12          N#Cc1ncn2c1nc(N1CCOCC1)c1ccccc12  225 to 228 °C
13  COc1cccc(C23CCCC2C(=O)N(Cc2ccccc2)C(=O)C3)c1 (stereo not drawn)    75 to 77 °C
14  O=c1[nH]nc(CCCN2CCN(c3cccc(Cl)c3)CC2)n1CCOc1ccccc1  150 to 153 °C
15  O=C1C(=O)c2ccccc2C2=C1SCC1(CCN(CC3CCCCO3)CC1)O2 (stereo not drawn)  135 to 137 °C
16  COC(=O)COc1ccc(C=Cc2nc(-c3ccccc3)c(-c3ccccc3)o2)cc1  122 to 123 °C
17  CC(C)OC(=O)c1cc(-n2c(=O)[nH]cc(C#N)c2=O)c(F)cc1Cl  143 to 145 °C
18  COc1cccc2c(=O)n(-c3ccc(Br)cc3)c(-c3cc(C)c(OCCO)c(C)c3)nc12  100 to 102 °C
19  Cc1nc(Cl)c2c(c1O)COC2C (stereo not drawn)         248 °C
20             COc1cc(CC(N)=O)cc(OC(F)F)c1OC  104 to 105 °C
21               O=C1Cc2cc(NCc3ccccc3)ccc2N1  203 to 206 °C
22  O=C(NCc1ccc(Cl)cc1)c1cn2c3c(cc(I)cc3c1=O)CC2CO (stereo not drawn)  222 to 223 °C
23             C=C(C)COc1cc(C)c(NC=O)c(C)c1C  144 to 145 °C
24  CC(=O)CCCCCNC(=O)Nc1ccccc1CCc1cc(C(C)(C)C)c(O)c(C(C)(C)C)c1    73 to 76 °C
25              N=C(N)Nc1nc(-c2cccc(N)c2)cs1  180 to 182 °C
26  COc1cc2cc(c1Cl)N(C)C(=O)CC(O)C1(C)OC1C(C)C1CC(O)(NC(=O)O1)C(OC)C=CC=C(C)C2 (stereo not drawn)         174 °C
27    Cc1nc(N2CCc3ccccc3CC2)c(C#N)c(=O)n1CCO  164 to 168 °C
28  CCCCS(=O)(=O)NC1Cc2ccc(C(=O)CCC(=O)O)cc2C1 (stereo not drawn)  138 to 140 °C
